test: Phototoxicity against human HEK293 cells assessed as cell viability at 3 uM photoirradiated for 30 mins using LED followed by incubation with compound for 24 hrs by WST-1 assay; format: toxicity, cell-based; details: time 1470 min, read-out: Activity
readout: viability at 24.5 h, 3 µM (%)
Answer format: numeric, % implied, no suffix.

Input: viability at 24.5 h, 3 µM lookup needed for CN(C)c1ccc2nc3ccc(=[N+](C)C)cc-3sc2c1 [METHYLENE BLUE ANHYDROUS] , thanks.
Output: 21
